- ASSAY_SYSTEM: UniProt P9WFK7
- Format: biochemical
- CONDITION_SET: with respect to KAN; global nonlinear regression fit
READOUT_KIND: Ki,u (equilibrium constant for inhibitor binding to enzyme-substrate complex)

Worked cases, Ki,u (equilibrium constant for inhibitor binding to enzyme-substrate complex) given:
1. Fc1cccc(NN=Cc2ccc(Cl)cc2)c1	104 ± 8 µM
2. OC(c1cc(C(F)(F)F)nc2c(C(F)(F)F)cccc12)C1CCCCN1 (stereo not shown)	5.9 ± 1.3 (p = 0.0002) μM
3. CN1CCCC(n2nc(Cc3ccc(Cl)cc3)c3ccccc3c2=O)CC1 (stereo not shown)	0.9 ± 0.5 (p = 0.08) μM

Kindly consider the entry below.
Ki,u (equilibrium constant for inhibitor binding to enzyme-substrate complex) reported for this compound CCN(CC)CCCC(C)Nc1ccnc2cc(Cl)ccc12 (stereo not shown) : 35 ± 20 (p = 0.1) μM

* * *

- ASSAY_SYSTEM: Mtb Eis (Mycobacterium tuberculosis, UniProt P9WFK7)
- Sequence (P9WFK7 whole entry): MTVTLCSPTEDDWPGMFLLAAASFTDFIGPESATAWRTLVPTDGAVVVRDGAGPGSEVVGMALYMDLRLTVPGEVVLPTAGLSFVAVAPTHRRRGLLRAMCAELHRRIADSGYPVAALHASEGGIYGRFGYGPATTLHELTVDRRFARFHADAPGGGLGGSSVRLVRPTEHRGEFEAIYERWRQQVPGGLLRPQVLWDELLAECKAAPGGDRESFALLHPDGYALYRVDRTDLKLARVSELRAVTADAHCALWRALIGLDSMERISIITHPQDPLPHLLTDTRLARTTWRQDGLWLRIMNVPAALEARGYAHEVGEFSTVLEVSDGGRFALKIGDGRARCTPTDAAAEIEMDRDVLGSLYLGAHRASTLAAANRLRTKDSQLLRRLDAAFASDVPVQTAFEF
- PROTOCOL_DETAILS: Eis acetylation assay
- Type: biochemical
Hi! Just check whether IC50 is below 30 µM. Below gives 1 (yes), equal or above gives 0 (no).

Worked examples, 3 compounds total:
1. CCN(CC)CCCC(C)Nc1ccnc2cc(Cl)ccc12 (centres unmarked)	1 (yes)
2. COc1ccc(C(CN(C)C)C2(O)CCCCC2)cc1 (centres unmarked)	0 (no)
3. OC(c1cc(C(F)(F)F)nc2c(C(F)(F)F)cccc12)C1CCCCN1 (centres unmarked)	1 (yes)

Lab log: compare recorded IC50 with 30 µM; is it strictly lower for CN1CCCC(n2nc(Cc3ccc(Cl)cc3)c3ccccc3c2=O)CC1 (centres unmarked) ?
1 (yes)

* * *

- ASSAY_SYSTEM: Mtb Eis (Mycobacterium tuberculosis)
- Format: biochemical
- CONDITION_SET: Michaelis-Menten analysis of KAN acetylation by Eis
READOUT_KIND: mode of inhibition with respect to KAN

1) CN1CCCC(n2nc(Cc3ccc(Cl)cc3)c3ccccc3c2=O)CC1 (stereo not shown) [Azelastine (AZL), Azelastine]	competitive
2) CCN(CC)CCCC(C)Nc1ccnc2cc(Cl)ccc12 (stereo not shown) [Chloroquine (CHQ), Chloroquine]	competitive
